System: Wnt5a (protein binding on small-molecule microarray)
Assay: Wnt5a binders on small-molecule microarray, primary screen, biophysical, 635/667 nm fluorescence (AID 1142);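 note: fluorescence read at 667 nm with signal to noise per printed feature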
Details: 635 nm fluorescence, higher = more signal
Here the recorded composite z-score is given for each entry.
// print number alone

COC(=O)[C@]1(Cc2ccccc2CN=[N+]=[N-])N=C(c2ccc(OCCCO)cc2)O[C@@H]1c1ccccc1N=[N+]=[N-] : 0.786
C[N+](C)(C)CCCC[C@@H]1NC(=O)[C@H]2C[C@@H](C(=O)NCCCCCN)[C@@H](c3ccc(O)cc3)N2C1=O : 0.801

Let us move to another entry and its composite z-score.
Form: item C=CCNC(=O)[C@@H]1[C@H]2C(=O)O[C@H](c3ccccc3)[C@H](c3ccccc3)N2[C@H](c2ccc(O)cc2)[C@@]12C(=O)Nc1ccc(C#CC3=CCCCC3)cc12 ; test system Wnt5a (protein binding on small-molecule microarray); composite z-score: 0.779
